Ref: paper PMC9661696

measurement target: Aβ42 (β-amyloid peptide) (Homo sapiens)
Construct: Aβ42
Sequence (P05067 672-713): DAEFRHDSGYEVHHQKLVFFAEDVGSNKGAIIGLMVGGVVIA
experiment notes: MS and LC-MS/MS detection of covalent adduct with Aβ[…]; ThT aggregation assay (IC50)
measurement kind: IC50 (µM)
Write the answer as a number in µM, unit excluded.

Qu. Param item = CCCSC(=O)/C=C/c1cc(O)ccc1O [compound 3, para-hydroquinone 3] ; retrieve measured IC50.
Ans. 10.2
